Reference for the values: paper PMC4919066

System: clinical isolates of HSV2
test.name: HSV-2 plaque assay in HFFs
Type: cell-based
assay.context: Human alphaherpesvirus 2, read-out: Mean EC50 ± SD
Structures can show the parent of a compound that is named as a salt.
experimental.readout: pEC50
pEC50 here: minus log base 10 of the concentration, concentration in moles per litre.

[in] Which measured pEC50 value corresponds to CC[C@H]1CN2CCc3cc(OC)c(OC)cc3[C@@H]2C[C@@H]1C[C@H]1NCCc2cc(OC)c(OC)cc21 [emetine, emetine dihydrochloride hydrate] ?
[out] 7.48
